target: HIV-1 envelope glycoprotein gp120 of virus 92US727 (HIV-1); experiment: cell-based or functional assay
propertyLabel: neutralization IC50 (mg/L)
Numbers only here, please. The scale is mg/L.

Asked: I'd like to know its neutralization IC50. The binder in question is 3.1.9-1 (antibody, human IgG1, kappa, V domains shown) VH: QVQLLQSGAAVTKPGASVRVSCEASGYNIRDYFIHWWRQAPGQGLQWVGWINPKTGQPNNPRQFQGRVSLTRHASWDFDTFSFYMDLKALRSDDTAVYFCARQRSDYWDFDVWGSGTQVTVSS VL: DIQMTQSPSSLSARVGDTATITCQANGYLNWYQQRRGKAPKLLIYDGSKLERGVPARFSGRRWGQEYNLTINNLQPEDVATYFCQVYEFFGPGTRLDLKR
Given back: 3.54

All values here come from patent US20240034774A1.
